Tgt: κ opioid receptor (Homo sapiens, UniProt P41145)
Sequence (P41145 whole entry): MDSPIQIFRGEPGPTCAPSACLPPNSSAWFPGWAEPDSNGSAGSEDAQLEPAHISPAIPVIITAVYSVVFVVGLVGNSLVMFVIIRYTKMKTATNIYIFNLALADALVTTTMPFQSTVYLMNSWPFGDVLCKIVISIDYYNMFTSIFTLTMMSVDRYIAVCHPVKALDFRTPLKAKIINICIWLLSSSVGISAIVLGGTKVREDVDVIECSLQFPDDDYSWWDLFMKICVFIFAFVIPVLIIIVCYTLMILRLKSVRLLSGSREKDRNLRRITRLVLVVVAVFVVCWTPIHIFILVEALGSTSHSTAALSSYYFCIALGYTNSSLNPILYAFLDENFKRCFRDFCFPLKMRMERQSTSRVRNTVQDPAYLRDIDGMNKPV
Measurement description: κ-opioid receptor [35S]GTPγS functional assay, U-2 OS cells
Assay type: biochemical
Design: expressed in transfected cells; host or cells: U-2 OS (in-house membranes)
Assay context: U-2 OS cells; relative to U69,593; read-out: GTPγS κ Emax
Reported Emax is given for each of the following molecules.
// note: answer is a bare numeric in %

Tell me its Emax given "CN1CC[C@@]2(C)c3cc(O)ccc3C[C@@H]1[C@@H]2N(C)C(=O)/C=C/c1cccnc1" as the entry.
94.5

Tell me its Emax given "CN1CC[C@@]2(C)c3cc(O)ccc3C[C@@H]1[C@H]2NCCc1ccc(C(C)(C)C)cc1" as the entry.
1

Tell me its Emax given "CN(C(=O)c1ccsc1)[C@@H]1[C@H]2Cc3ccc(O)cc3[C@]1(C)CCN2CC1CC1" as the entry.
107

Tell me its Emax given "CN1CC[C@@]2(C)c3cc(O)ccc3C[C@@H]1[C@H]2N(C)C(=O)Cc1ccccc1" as the entry.
79.7

Tell me its Emax given "CN1CC[C@]2(C)c3cc(O)ccc3C[C@@H]1[C@H]2Nc1ccc(CCS(N)(=O)=O)cc1" as the entry.
9.78

Tell me its Emax given "CN1CC[C@@]2(C)c3cc(O)ccc3C[C@@H]1[C@H]2N(C)C(=O)C1CCCCC1" as the entry.
62.3

Tell me its Emax given "CN1CC[C@]2(C)c3cc(O)ccc3C[C@H]1[C@H]2NCCc1ccc(S(N)(=O)=O)cc1" as the entry.
2

Tell me its Emax given "CN1CC[C@@]2(C)c3cc(O)ccc3C[C@@H]1[C@H]2N(C)C(=O)c1ccsc1" as the entry.
102

Tell me its Emax given "CN1CC[C@@]2(C)c3cc(O)ccc3C[C@@H]1[C@H]2NCCNC(=O)OC(C)(C)C" as the entry.
26.3
